tgt: Hexose transporter 1 (Plasmodium falciparum) (UniProt O97467)
experiment.notes: ST_JUDE_LEISH: Cytotoxicity at 2uM final concentration against transgenic Leishmania Mexicana promastigotes LmPfHT that are glucose transport deficient and complemented with the Plasmodium falciparum hexose transporter. Activity is measured by DNA content using SYBR green in vitro
Assay type: functional
inhibition values for the compounds below.
attribute.measured: inhibition (%)

{"compound": "O=C(Nc1cccc(C(F)(F)F)c1)c1cccc2nc(C(F)(F)F)[nH]c12", "numeric.result": 24.2}
{"compound": "O=C(/C=C/c1ccc(Cl)c(Cl)c1)NCCCCCN1CCC(NC(=O)c2ccc(F)cc2F)CC1", "numeric.result": 5.55}
{"compound": "CN1CCN(c2cc(NC(=O)c3ccc(-c4ccc(Cl)cc4)cc3)ccc2Cl)CC1", "numeric.result": -0.81}
{"compound": "CC(C)C(C(=O)Nc1ccc(S(=O)(=O)N(C)C)cc1)c1ccc(Cl)cc1 (centres undefined)", "numeric.result": -3.31}
{"compound": "O=c1[nH]c2c(cc1CNC1CCCCC1)c(-c1cccc(F)c1)nn2-c1ccccc1", "numeric.result": 0.38}
{"compound": "CC(CN1CCN(C)CC1)C(=O)Nc1cccc(-c2cccc(-c3nc4cc(F)ccc4[nH]3)c2)c1 (centres undefined)", "numeric.result": 5.83}
{"compound": "O=C(Cn1c(CCc2cccc(F)c2F)cc(=O)c2cccnc21)N(CCn1ccnc1)Cc1ccc(-c2ccc(C(F)(F)F)cc2)cc1", "numeric.result": 1.8}
{"compound": "Cc1c(CC(=O)NCCC2CCN(CCCCCNC(=O)/C=C/c3ccc(Cl)c(Cl)c3)CC2)sc2ccc(Cl)cc12", "numeric.result": 5.42}
{"compound": "Nc1ccncc1C(=O)NCCCCN1CCN(c2nsc3ccccc23)CC1", "numeric.result": 0.47}
{"compound": "O=C(NC1CCC(N2CCC(Cc3ccc(F)cc3)CC2)CC1)c1cc2ccccc2[nH]1 (centres undefined)", "numeric.result": 0.08}
{"compound": "Cc1cnccc1/C=C/c1cccc(OCCN2CCc3ccc(S(C)(=O)=O)cc3CC2)c1", "numeric.result": 2.77}
{"compound": "CN1CCN(c2ccnc3ccc(NC(=O)Cc4ccc(-c5ccncc5)c5ccccc45)cc23)CC1", "numeric.result": 0.37}
{"compound": "COc1ccc2nccc([C@@H](O)CN3CCC(NCc4[nH]c5ccccc5c4F)CC3)c2c1", "numeric.result": 9.58}
{"compound": "Cc1ccc(C)c(-n2c(SCC(=O)Nc3ccc(C(N)=O)cc3)nnc2-c2cccc(Cl)c2)c1", "numeric.result": 11.6}
{"compound": "COC(=O)c1ccc(C2OC3(C(=O)c4ccccc4C3=O)C(OC)=C2Cl)cc1C(C)=O (centres undefined)", "numeric.result": -0.79}
{"compound": "CC(=O)Nc1ccc(C(=O)Nc2cccc(-c3ccc(-c4nc5cccc(C)c5[nH]4)cc3)c2)cn1", "numeric.result": 4.51}
{"compound": "CCCCNC(=O)C(C)NC(=O)c1ccc(O)c(-c2ccc(Cl)c(Cl)c2)c1 (centres undefined)", "numeric.result": -0.53}
{"compound": "CC(=O)N/N=C/[C@H](CCc1ccccc1)NC(=O)[C@H](CC(C)C)NC(=O)c1ccc(F)cc1", "numeric.result": 4.34}
{"compound": "Cc1cc(OCC(=O)Nc2ccc(-c3nc4ccccc4[nH]3)cc2)cc(C)c1Cl", "numeric.result": 2}

src = ChEMBL document CHEMBL3433997
